assay: growth inhibition, single agents and combos, UWB1.289, cell-based, BGB or cisplatin combos, synergistic combos for chromothripsis tumors (AID 1671456); conditions: UWB1.289 ovarian carcinoma cells, measured here: inhibition with cisplatin combination, at 0.05 µM, stronger effect = higher value;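 also: cells exposed to compound for four days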
# class assignment by measured inhibition: bottom (below -20%), middle (-20% to below -10%), top (-10% or more)

| compound | label-value |
| --- | --- |
| Cc1cn(C2C=CC(CO)O2)c(=O)[nH]c1=O (stereo not drawn) | middle |
| O=c1[nH]c(=O)n(C2CC(O)C(CO)O2)cc1I (stereo not drawn) | middle |
| NC(=O)c1cccc2[nH]c(-c3ccc(C4CCCN4)cc3F)nc12 (stereo not drawn) | bottom |
| C[C@H](NC(=O)c1ccccc1N=Cc1c(O)ccc2ccccc12)c1ccccc1 | top |
| O=c1[nH]c(=S)[nH]c2nc(-c3ccccc3)c(-c3ccccc3)nc12 | top |
| Cn1cc(-c2cnn3c(N)c(Br)c([C@H]4CCCNC4)nc23)cn1 | top |
| Cc1ccc([N+](=O)[O-])cc1S(=O)(=O)N(C)/N=C\c1cnc2ccc(Br)cn12 | bottom |
| O=C(CCCCCCC(=O)Nc1ccc(I)cc1)NO | middle |
| COc1ccc(-c2nc(-c3cc(C(F)(F)F)cc(C(F)(F)F)c3)n(Cc3ccc(C(N)=O)cc3)c2-c2ccc(OC)cc2)cc1 | middle |
| COc1nc(N)nc2c1ncn2[C@@H]1O[C@H](CO)[C@@H](O)[C@H]1O | bottom |
| CC(C)c1ccc(-c2cc(=O)c3ccccc3o2)cc1 | middle |
| Nc1ccccc1NC(=O)c1cnccn1 | bottom |
| Nc1ncn(C2OC(CO)C(O)C2O)c(=O)n1 (stereo not drawn) | top |
